System under test: ERRβ (GAL-L-ERRb) (Homo sapiens, UniProt O95718)
Construct: expressed in transfected cells
Sequence (O95718 208-432 limits assumed): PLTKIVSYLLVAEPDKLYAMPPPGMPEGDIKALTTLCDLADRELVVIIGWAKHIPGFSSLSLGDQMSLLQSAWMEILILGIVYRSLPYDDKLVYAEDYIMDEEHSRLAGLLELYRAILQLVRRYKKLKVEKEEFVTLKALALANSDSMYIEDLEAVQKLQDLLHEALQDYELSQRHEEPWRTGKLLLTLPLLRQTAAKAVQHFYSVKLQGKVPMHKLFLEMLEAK
Test protocol: MH100x4 luciferase reporter with GAL-L-ERRb
Assay type: cell-based
Study conditions: Table 2; dose 5 (unit not given); None 1.00
Value kind: Fold Activation

Some solved cases for reference:
C=CCOc1ccc(C(CC)=C(CC)c2ccc(O)c(CC=C)c2)cc1: 0.45
CCC(=C(CC)c1ccc(O)c(C(C)C)c1)c1ccc(O)cc1: 0.53
CCC(=C(CC)c1ccc(O)c(C(C)(C)C)c1)c1ccc(O)cc1: 0.42
C=CCOc1ccc(C(CC)=C(CC)c2ccc(OCC=C)cc2)cc1: 0.70
CCCCCCCCCCCCOc1ccc(C(CC)=C(CC)c2ccc(OCCCCCCCCCCCC)cc2)cc1: 0.69
CCC(=C(CC)c1ccc(O)c(C=C(C)C)c1)c1ccc(O)cc1: 0.49
C=CCc1cc(C(CC)=C(CC)c2ccc(O)c(CC=C)c2)ccc1O: 0.44

[a] CCC(=C(CC)c1ccc(Oc2cccc(C=O)c2)cc1)c1ccc(O)cc1
[b] CCCCCCCCCCCCOc1ccc(/C(CC)=C(\CC)c2ccc(O)cc2)cc1
IN: Lower value for measured Fold Activation? Options: a , b Please indicate the selected item by its label.
OUT: a

* * *

System under test: ERRβ (GAL-L-ERRb) (Homo sapiens)
Construct: expressed in transfected cells
Test protocol: MH100x4 luciferase reporter with GAL-L-ERRb
Type: cell-based
Set-up: unit not given here
Study conditions: Table 2; dose 5 (unit not given); None 1.44
Value kind: Reporter Activity

CCC(=C(CC)c1ccc(O)c(C=C(C)C)c1)c1ccc(O)cc1: 0.71
C=CCOc1ccc(C(CC)=C(CC)c2ccc(OCC=C)cc2)cc1: 1.01
CCCCCCCCCCCCOc1ccc(C(CC)=C(CC)c2ccc(OCCCCCCCCCCCC)cc2)cc1: 1
CCC(=C(CC)c1ccc(O)c(C(C)C)c1)c1ccc(O)cc1: 0.76

* * *

System under test: ERRβ (GAL-L-ERRb) (Homo sapiens)
Construct: expressed in transfected cells
Test protocol: MH100x4 luciferase reporter with GAL-L-ERRb
Format: cell-based
Parameters: unit not given here
Study conditions: Table 3; dose 2.5 (unit not given); None 2.38
Value kind: Reporter Activity

Some solved cases for reference:
CCC(=C(c1ccc(OC2CCCCO2)cc1)c1ccc(OC2CCCCO2)cc1)c1ccccc1 (stereo not drawn): 2.4
CC(C)/C(=C(\c1ccc(O)cc1)c1ccc(OCN(C)C)cc1)c1ccccc1: 0.34
Oc1ccc(C(=C(CCCl)c2ccccc2)c2ccc(O)cc2)cc1: 2.04

[1] CC/C(=C(/c1ccc(OCCN(C)C)cc1)c1ccc(OC(C)=O)cc1)c1ccccc1
[2] Oc1ccc(C(=C(CCCCl)c2ccccc2)c2ccc(O)cc2)cc1
IN: Lower value for measured Reporter Activity? Options: 1 , 2 Please indicate the selected item by its label.
OUT: 1
(1: 0.2, 2: 1.75)
